Quick reference: 590 nm absorbance normalized to zero hour (substrate use), 2 hr of the listed items.
# Tested on: NHBE cells
# ASSAY DETAILS: Biolog metabolic array: substrate use by NHBE cells with or without CA09 infection
# Format: cell-based, human
# CONDITION: Control (uninfected) NHBE cells, 2 hr

OCC(O)CO
1.42
OCc1ccccc1O[C@@H]1O[C@H](CO)[C@@H](O)[C@H](O)[C@H]1O
0.93
O=C(O)CC(CC(=O)O)C(=O)O
1.03
O=C(CO)[C@@H](O)[C@@H](O)[C@H](O)CO
1.01

Then this molecule:
Prompt: Form field: 590 nm absorbance normalized to zero hour (substrate use), 2 hr recorded for `O=C[C@H](O)[C@@H](O)[C@H](O)[C@H](O)C(=O)O` with NHBE cells (enter value)
Completion: 1.37
